Listed next: entries and their corresponding IC50.
molecular target: DCN1 (DCUND1) protein PONY domain (Homo sapiens (Human), UniProt Q96GG9); experiment: TR-FRET assay, DCN1 binding with FAM-labeled probe; conditions: TR FRET IC50 1 hr (nM), 1 hr after treatment with compound
Sequence (Q96GG9 60-248): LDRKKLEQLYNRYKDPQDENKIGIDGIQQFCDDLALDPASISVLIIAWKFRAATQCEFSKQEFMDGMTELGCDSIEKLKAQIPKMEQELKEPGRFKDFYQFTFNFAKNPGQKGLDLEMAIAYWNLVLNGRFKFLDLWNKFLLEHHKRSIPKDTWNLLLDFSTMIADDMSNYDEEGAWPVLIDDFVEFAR

| compound | tested-on | IC50 |
| --- | --- | --- |
| CCN1C(=O)[C@@H](NC(=O)c2cccc(C(F)(F)F)c2)[C@@H](c2ccc(F)cc2)c2c(CNC(=O)C3(C#N)CCOCC3)nn(-c3ccccc3)c21 (racemic) | DCN1 (DCUND1) protein PONY domain (Homo sapiens (Human), UniProt Q96GG9) | 1000 to 3000 nM |
| CCN1C(=O)[C@H](NC(=O)c2cccc(C(F)(F)F)c2)[C@H](c2ccc(F)cc2)c2c(C(=O)N(CC#N)C3CC3)nn(-c3ccccc3)c21 (stereo in doubt) | DCN1 (DCUND1) protein PONY domain (Homo sapiens (Human), UniProt Q96GG9) | 1000 to 3000 nM |
| C=CC(=O)N[C@@H](C)c1nn(-c2ccccc2)c2c1[C@H](c1ccc(F)cc1)[C@H](NC(=O)c1cccc(C(F)(F)F)c1)C(=O)N2CC (mixture of isomers) | DCN1 (DCUND1) protein PONY domain (Homo sapiens (Human), UniProt Q96GG9) | 200 to 1000 nM |
| CCN1C(=O)[C@@H](NC(=O)CCc2cnn(C)c2)[C@@H](C2CC2)c2c(C(=O)N3[C@H](C#N)C[C@H]4C[C@H]43)nn(C3CCOCC3)c21 | DCN1 (DCUND1) protein PONY domain (Homo sapiens (Human), UniProt Q96GG9) | 1000 to 3000 nM |
| CCN1C(=O)[C@@H](NC(=O)c2cccc(C(F)(F)F)c2)[C@@H](C2CC2)c2c(C(=O)N(CC#N)C3CC3)nn(C3CC3)c21 | DCN1 (DCUND1) protein PONY domain (Homo sapiens (Human), UniProt Q96GG9) | 1000 to 3000 nM |
